The reported measurements were obtained from the SangsterLogP compilation.

Class (required): determined from logP; valid ranges are low: < 4; intermediate: ≥ 4 and < 6; high: ≥ 6

Reference set, count: 5
| input-smiles | class |
| --- | --- |
| Brc1c2ccccc2c(Br)c2ccccc12 | high |
| COc1c2ccccc2cc2ccccc12 | intermediate |
| COC(=O)c1c2ccccc2cc2ccccc12 | low |
| Brc1ccc2ccc3cccc4ccc1c2c34 | intermediate |
| CC(=O)c1cc2ccc3cccc4ccc(c1)c2c34 | intermediate |

Classify this molecule: `CC(=O)c1c2ccccc2cc2ccccc12` low

Which class holds `Brc1cc2ccc3cccc4ccc(c1)c2c34` ? intermediate

====

recorded-metric: logP
One number for each entry.

Example entries begin here.
| input-smiles | logP |
| --- | --- |
| NC(=O)c1c2ccccc2cc2ccccc12 | 2.23 |
| CC(=O)c1ccc2ccc3cccc4ccc1c2c34 | 4.18 |
| N#Cc1c2ccccc2cc2ccccc12 | 3.98 |
| COC(=O)c1ccc2ccc3cccc4ccc1c2c34 | 4.73 |

Value sought for every listed compound: logP.
1. COC(=O)c1cc2ccc3cccc4ccc(c1)c2c34
2. CC(=O)c1cc2cccc3ccc4cccc1c4c32
3. Clc1c2ccccc2cc2ccccc12

[4.85, 4.16, 5.27]

====

recorded-metric: logP
One number for each entry.

| input-smiles | logP |
| --- | --- |
| O=C1c2ccccc2C(=O)c2ccccc21 | 3.28 |
| O=Cc1c2ccccc2cc2ccccc12 | 3.77 |
| Brc1c2ccccc2cc2ccccc12 | 5.37 |

Dear colleague, could you please provide logP for the molecules listed below?
1. O=Cc1ccc2ccc3cccc4ccc1c2c34
2. Brc1ccc2ccc3c(Br)ccc4ccc1c2c43
3. Brc1cc(Br)c2ccc3cccc4ccc1c2c43
4. Brc1ccc2ccc3ccc(Br)c4ccc1c2c34
5. Brc1cc2cccc3ccc4cccc1c4c32

1: 4.23; 2: 6.69; 3: 6.85; 4: 6.73; 5: 5.84
